target: Transcription factor Sp1 (Homo sapiens); experiment: ATG_Sp1_CIS: Attagene CIS-FACTORIAL HepG2 Assay for human Specificity Protein 1 (Sp1) (AID 2282961); conditions: HepG2 Sp1 cis-reporter transcription, actives raise or lower the signal
Calls of active or inactive are those of the source. How the source made its calls: active means hit-call score of the fitted dose curve at least 0.9, where 1 is the maximum; inactive means score below 0.9.
Classes used: true for active, false for inactive

> print(dat)
                                    molecule  class.assignment
 1                             O=c1cc[nH]cc1             false
 2                           CC(=O)OC(C)(C)C             false
 3                     O=C(O)c1cc2ccccc2cc1O             false
 4                CC1=CC[C@@H]2C[C@H]1C2(C)C             false
 5             Nc1cc([N+](=O)[O-])ccc1C(=O)O             false
 6           CCn1cc(C(=O)O)c(=O)c2ccc(C)nc21             false
 7  CC(=O)OC(C)(C)C1CC=C(C)CC1 (stereo not given)             false
 8  C[C@H](CCC(=O)O)[C@H]1CC[C@H]2[C@@H]3CC[C@@H]4C[C@H](O)CC[C@]4(C)[C@H]3CC[C@]12C              true
 9                         CCCCCc1cccc(=O)o1             false
10                      CC(C)COC(=O)c1ccccc1             false
11                       Cc1ccc(C(C)(C)O)cc1             false
12                  CC(C)N1C(=O)c2ccccc2C1=O             false
13                                 CCC(CC)CO             false
14                 C=CCOC(=O)/C=C\C(=O)OCC=C             false
15                           O=C(O)c1ccccc1O             false
